Tested on: HIV-1 IIIB strain
Experiment: MT-4 HIV Wild Type Virus Infection Assay (IIIB Virus)
Assay type: cell-based
Conditions: Human immunodeficiency virus 1, IIIB, MT4, 120 h, MT-4 cells acutely infected with HIV-1 IIIB, 5 day incubation, Cell-titer glo
As shown below, each of these compounds has a reported EC50 value.
property.name: EC50 (nM)

[[record]]
compound = "COC(=O)N[C@H](C(=O)N[C@@H](Cc1ccc(C#Cc2cnc(N3CC4CCC(C3)N4C3COC3)nc2)cc1)[C@H](CN(Cc1c(F)cc(-c2ccn(C(F)F)n2)cc1F)NC(=O)[C@@H](NC(=O)OC)C(C)(C)C(F)(F)F)OC(=O)CC(C)(C)c1c(CC(=O)N[C@H](CCC(=O)O)C(=O)O)cc(C)cc1OP(=O)(O)O)C(C)(C)C(F)(F)F [Example 92]"
data_value = 37.1

[[record]]
compound = "COC(=O)N[C@H](C(=O)N[C@@H](Cc1ccc(C#Cc2cnc(N3CC4CCC(C3)N4C3COC3)nc2)cc1)[C@H](CN(Cc1c(F)cc(-c2ccn(C(F)F)n2)cc1F)NC(=O)[C@@H](NC(=O)OC)C(C)(C)C(F)(F)F)OC(=O)CC(C)(C)c1c(CC(=O)N[C@H]2C[C@@H](C(=O)O)C2)cc(C)cc1OP(=O)(O)O)C(C)(C)C(F)(F)F [Example 102]"
data_value = 54.1


---

Experiment: PBS Stability Assay
Format: physicochemical
Settings: buffer, pH 7.4, 2 μM, phosphate buffered saline pH 7.4; read-out: PBS T½
property.name: half-life at 2 μM (h)

[[record]]
compound = "COC(=O)N[C@H](C(=O)N[C@@H](Cc1ccc(C#Cc2cnc(N3CC4CCC(C3)N4C3COC3)nc2)cc1)[C@H](CN(Cc1c(F)cc(-c2ccn(C(F)F)n2)cc1F)NC(=O)[C@@H](NC(=O)OC)C(C)(C)C(F)(F)F)OC(=O)CC(C)(C)c1c(CC(=O)Nc2ccc(/C=C/C(=O)O)cc2)cc(C)cc1OP(=O)(O)O)C(C)(C)C(F)(F)F"
data_value = 5.92

[[record]]
compound = "COC(=O)N[C@H](C(=O)N[C@@H](Cc1ccc(C#Cc2cnc(N3CC4CCC(C3)N4C3COC3)nc2)cc1)[C@H](CN(Cc1c(F)cc(-c2ccn(C(F)F)n2)cc1F)NC(=O)[C@@H](NC(=O)OC)C(C)(C)C(F)(F)F)OC(=O)CC(C)(C)c1c(CC(=O)NC(CCCC(=O)O)CC(=O)O)cc(C)cc1OP(=O)(O)O)C(C)(C)C(F)(F)F (stereo partly drawn)"
data_value = 7.32

[[record]]
compound = "COC(=O)N[C@H](C(=O)N[C@@H](Cc1ccc(C#Cc2cnc(N3CC4CCC(C3)N4C3COC3)nc2)cc1)[C@H](CN(Cc1c(F)cc(-c2ccn(C(F)F)n2)cc1F)NC(=O)[C@@H](NC(=O)OC)C(C)(C)C(F)(F)F)OC(=O)CC(C)(C)c1c(CC(=O)NC(CC(=O)O)CC(=O)O)cc(C)cc1OP(=O)(O)O)C(C)(C)C(F)(F)F"
data_value = 4.82


---

Assay: Intestinal S9 Assay (human GI S9)
Format: in vitro ADME
Settings: human, 1.0 mg/mL S9 protein, TRIS pH 7.4, read-out: Human GI S9 T½
property.name: half-life at 2 μM (h)

[[record]]
smiles_representation = "COC(=O)N[C@H](C(=O)N[C@@H](Cc1ccc(C#Cc2cnc(N3CC4CCC(C3)N4C3COC3)nc2)cc1)[C@H](CN(Cc1c(F)cc(-c2ccn(C(F)F)n2)cc1F)NC(=O)[C@@H](NC(=O)OC)C(C)(C)C(F)(F)F)OC(=O)CC(C)(C)c1c(CC(=O)N2CC[C@@H](O)[C@H]2C(=O)O)cc(C)cc1OP(=O)(O)O)C(C)(C)C(F)(F)F"
data_value = 11

[[record]]
smiles_representation = "COC(=O)N[C@H](C(=O)N[C@@H](Cc1ccc(C#Cc2cnc(N3CC4CCC(C3)N4C3COC3)nc2)cc1)[C@H](CN(Cc1c(F)cc(-c2ccn(C(F)F)n2)cc1F)NC(=O)[C@@H](NC(=O)OC)C(C)(C)C(F)(F)F)OC(=O)CC(C)(C)c1c(CC(=O)N2C[C@@H](C(=O)O)C[C@H]2C(=O)O)cc(C)cc1OP(=O)(O)O)C(C)(C)C(F)(F)F"
data_value = 9.22

[[record]]
smiles_representation = "C=C1C[C@@H](C(=O)O)N(C(=O)Cc2cc(C)cc(OP(=O)(O)O)c2C(C)(C)CC(=O)O[C@@H](CN(Cc2c(F)cc(-c3ccn(C(F)F)n3)cc2F)NC(=O)[C@@H](NC(=O)OC)C(C)(C)C(F)(F)F)[C@H](Cc2ccc(C#Cc3cnc(N4CC5CCC(C4)N5C4COC4)nc3)cc2)NC(=O)[C@@H](NC(=O)OC)C(C)(C)C(F)(F)F)C1"
data_value = 12

